Tested on: NCI-H522 lung
ASSAY SUMMARY: NCI tumour cell line growth inhibition, 48 h

- COMPOUND: "COC12C=CC(CC1)C(C)(C)C2OS(C)(=O)=O (stereo unspecified)"
  TGI: "> 100 µM"
- COMPOUND: "O=c1[nH]nc(Cc2ccc(Cl)cc2)n1/N=C/c1c[nH]c2ccccc12"
  TGI: "> 100 µM"
- COMPOUND: "C=C(C)[C@@H]1CC[C@]2(C(=O)O)CC[C@]3(C)[C@H](CC[C@@H]4[C@@]5(C)C/C(=C/c6cccc(I)c6)C(=O)C(C)(C)[C@@H]5CC[C@]43C)[C@@H]12"
  TGI: "6.94 µM"
- COMPOUND: "CCCCCCCCCCC[C@@H](C[C@H]1OC(=O)[C@H]1CCCCCC)OC(=O)[C@@H](CC(C)C)NC=O"
  TGI: "26.4 µM"
- COMPOUND: "O=C1CCC2(c3ccc(Cl)cc3)Nc3ncncc3N12 (stereo unspecified)"
  TGI: "> 10 µM"
- COMPOUND: "O=Cc1c(Br)[nH]c2ccccc12"
  TGI: "> 100 µM"
- COMPOUND: "C[N+](C)(C)CC(=O)N/N=C(/Cc1nc2ccc([N+](=O)[O-])cc2[nH]c1=O)C(=O)Nc1cc(C(F)(F)F)ccc1Cl"
  TGI: "> 100 µM"
- COMPOUND: "Cc1cn([C@@H]2C[C@H](CO)[C@@H]2O)c(=O)[nH]c1=O"
  TGI: "> 100 µM"
- COMPOUND: "ClC1c2ccccc2C2(c3ccccc3)OOC1(c1ccccc1)O2 (stereo unspecified)"
  TGI: "0.8 µM"
- COMPOUND: "CC(C)=CCC[C@@H](C)C1=CC(=O)C(C)=C(O)C1=O"
  TGI: "2.78 µM"
- COMPOUND: "COc1ccc(-n2cc(-c3cc(OC)c(OC)c(OC)c3)[nH]c2=S)cc1Cl"
  TGI: "> 100 µM"
